biological target: T1, Fc protein; experiment: ELISA, Fc protein coated, 10 ng VHH/well
T1 construct: Counter-screen for the Fc part of CTLA4-Fc
assay_endpoint: OD (against Fc) (OD405)
# value in OD405; strip the unit string

1. CTLA4 heavy chain single domain antibody No. C38 (VHH, Camel VHH expressed in E. coli (PET32b), nickel-purified) VHH: QVQLQESGGGSVQAGGSLRLSCAASRYTASSNCMAWFRQAPGKEREGVATIYNGGGSTAYADSVKGRFTISQDNAKNTVYLQMNSLKPEDTAMYYCGAGSPRFCASATMTGGHHLFGYWGQGTQVTVSS : 0.045
2. CTLA4 heavy chain single domain antibody No. 145 (VHH, Camel VHH expressed in E. coli (PET32b), nickel-purified) VHH: QVQLQESGGGSVQAGGSLRLSCAASGYTYSSYSMGWFRQAAGKEREGVAAIDSDGSTSYADSVKGRFTISQDNAKNTLYLQMNSLEPEDTAMYYCAATAGWYAARHALSPLFFGYWGQGTQVTVSS : 0.065
3. CTLA4 heavy chain single domain antibody No. 116 (VHH, Camel VHH expressed in E. coli (PET32b), nickel-purified) VHH: QVQLQESGGGLVQPGGSLRLSCEASGFTFSSYTMTWLRQAPGKGLEWVSTINSGGSTSYADSVKGRFAISRDNAKNTLYLQLNSLEIEDTGMYYCQGGLTRGQGTQVTVSS : 0.046
4. CTLA4 heavy chain single domain antibody No. 119 (VHH, Camel VHH expressed in E. coli (PET32b), nickel-purified) VHH: QVQLQESGGGSVQAGGSLRLSCAASEYTYHTNCMGWFRQAPGKEREGLAVMNPSGGVTYFADSVKGRFTISRDNAKNTVYLQMNSLKPEDTAMYYCAAGRGRCSGYSGYYNEWGQGTQVTVSS : 0.037
5. CTLA4 heavy chain single domain antibody No. C1 (VHH, Camel VHH expressed in E. coli (PET32b), nickel-purified, detected by anti-His tag antibody) VHH: QVQLQESGGGSVQAGGSLGLSCAASGYIYSAYCMGWFRQAPGKEREGVAAIYLGGGSTYYADSVKGRFTISQDIAKNTLYLQMNSLKPEDTAMYSCAADVIPTETCLGGSWSGPFGYWGQGTQVTVSS : 0.053
6. CTLA4 heavy chain single domain antibody No. J37 (VHH, Camel VHH expressed in E. coli (PET32b), nickel-purified) VHH: QVQLQESGGGSVQAGGTLRLSCAVSGVTYSPHCMGWFRQAPGKEREGVAAIYNGGGSTAYADSVKGRFTISQDNAKNTVYLQMNSLKPEDTAMYYCGAGSPRFCASATMTGGHHLFGYWGQGTQVTVSS : 0.034
7. CTLA4 heavy chain single domain antibody No. J69 (VHH, Camel VHH expressed in E. coli (PET32b), nickel-purified) VHH: QVQLQESGGGLVQPGGSLRLSCAASGFTLSSYSMTWLRQAPGKGLEWVSTINSGGSTSYADSVKGRFAISRDNAKNTLYLQLNSLEIEDTGMYYCQGGLTRGQGTQVTVSS : 0.037

In: Item under review: CTLA4 heavy chain single domain antibody No. C27 (VHH, Camel VHH expressed in E. coli (PET32b), nickel-purified) VHH: QVQLQESGGGSVQAGGSLRLSCAASGYIYSAYCMGWFRQAPGKERVGVAAISIGGGSTYYADSVKGRFTISQDNAKNTLYLQMNSLKPEDTAMYYCAADVIPTETCLGGSWSGPFGYWGQGTQVTVSS . Reported OD (against Fc)?
Out: 0.049
